- method_description: yeast display, Sf9 membrane polyspecificity reagent, FACS + sequencing; frameworks hold sequencing errors
measured_parameter: polyreactivity (PSR sort gate)

Challenge: Data request, read-out polyreactivity (PSR sort gate), for QVQLVESGGGLVQAGGSLRLSCAASGSIIPLYAMGWYRQAPGKERELVAAISRRGGSTYYADSVKGRFTISRDNAKNTVYLQMNSLKPEDTAVYYCAVDTPSPSRGPRFNYWGQGTQVTVSS
Response given: high polyreactivity

Challenge: Data request, read-out polyreactivity (PSR sort gate), for QVQLVESGGGLVQAGGSLRLSCAASGSIFYRNRMGWYRQAPGKERELVAAIRYSGDNTYYADSVKGRFTISRDNAKNTVYLQMNSLKPEDTAVYYCAADFPDYEYWGQGTQVTVSS
Response given: high polyreactivity
